# credit: patent US20250100996A1

Molecular target: UniProt:Q96SW2
Experiment: Cereblon (CRBN) target engagement, NanoBRET TE Intracellular E3 Ligase Assay in transfected HEK-293T cells
Settings: read-out: CRBN Binding EC50
PROPERTY MEASURED: EC50 (nM)

O=C1CCC(N2Cc3cc(OC4CCCC4N4CC(c5ncc(F)cn5)C4)ccc3C2=O)C(=O)N1 (stereo not shown) : 88
O=C1CCC(N2Cc3cc(O[C@H]4CCCC[C@@H]4N4CC(C5CCN(C(=O)C6(F)CC6)CC5)C4)ccc3C2=O)C(=O)N1 (stereo partly shown) : 3
O=C1CCC(N2Cc3cc(O[C@@H]4CCCC[C@@H]4N4CC(c5ccc(C(F)(F)F)nc5)C4)ccc3C2=O)C(=O)N1 (mixture of isomers) : 15
O=C1CCC(N2Cc3cc(O[C@H]4CCCC[C@H]4N4CC(c5ncc(C(F)(F)F)cn5)C4)ccc3C2=O)C(=O)N1 (single isomer, unassigned) [Compound 122-B] : 13
O=C1CCC(N2Cc3cc(O[C@H]4CCCC[C@@H]4N4CC(c5ccncc5Cl)C4)ccc3C2=O)C(=O)N1 (single isomer, unassigned) [Compound 95-B] : 30

(1) O=C1CCC(N2Cc3cc(OC4CCC[C@@H]4N4CC(c5ccccn5)C4)ccc3C2=O)C(=O)N1 (mixture of isomers) [Compound 210-B]
(2) O=C1CCC(N2Cc3cc(OC4CCCC4N4CC(c5cnc6ccccc6n5)C4)ccc3C2=O)C(=O)N1 (stereo not shown)
(3) O=C1CCC(N2Cc3cc(OC4CCCCC4N4CC(c5ccnnc5)C4)ccc3C2=O)C(=O)N1 (stereo not shown)
(4) COc1ccc(C2CN([C@H]3CCCC3Oc3ccc4c(c3)CN(C3CCC(=O)NC3=O)C4=O)C2)cn1 (mixture of isomers) [Compound 202-B]
Order the records by EC50, with each subsequent value no larger than the one before. Your answer should be the labels, listed in the requested order. 3, 1, 4, 2
(3: 247 nM, 1: 122 nM, 4: 29 nM, 2: 20 nM)

###

Molecular target: human E3 ligase component cereblon (CRBN) (Homo sapiens, UniProt Q96SW2)
Sequence (Q96SW2 whole entry): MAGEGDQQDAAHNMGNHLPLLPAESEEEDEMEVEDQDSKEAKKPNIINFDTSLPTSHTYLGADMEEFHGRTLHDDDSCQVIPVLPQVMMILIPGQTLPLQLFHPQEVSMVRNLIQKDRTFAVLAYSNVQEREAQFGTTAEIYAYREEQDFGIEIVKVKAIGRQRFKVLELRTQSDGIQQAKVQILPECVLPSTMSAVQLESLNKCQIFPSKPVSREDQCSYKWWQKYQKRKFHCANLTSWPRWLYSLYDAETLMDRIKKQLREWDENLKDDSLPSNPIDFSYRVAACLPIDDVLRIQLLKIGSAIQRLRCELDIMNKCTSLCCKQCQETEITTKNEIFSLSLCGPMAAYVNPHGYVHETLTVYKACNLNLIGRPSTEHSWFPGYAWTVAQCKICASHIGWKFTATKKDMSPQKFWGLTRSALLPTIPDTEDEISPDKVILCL
Sequence (Q16531 whole entry partner): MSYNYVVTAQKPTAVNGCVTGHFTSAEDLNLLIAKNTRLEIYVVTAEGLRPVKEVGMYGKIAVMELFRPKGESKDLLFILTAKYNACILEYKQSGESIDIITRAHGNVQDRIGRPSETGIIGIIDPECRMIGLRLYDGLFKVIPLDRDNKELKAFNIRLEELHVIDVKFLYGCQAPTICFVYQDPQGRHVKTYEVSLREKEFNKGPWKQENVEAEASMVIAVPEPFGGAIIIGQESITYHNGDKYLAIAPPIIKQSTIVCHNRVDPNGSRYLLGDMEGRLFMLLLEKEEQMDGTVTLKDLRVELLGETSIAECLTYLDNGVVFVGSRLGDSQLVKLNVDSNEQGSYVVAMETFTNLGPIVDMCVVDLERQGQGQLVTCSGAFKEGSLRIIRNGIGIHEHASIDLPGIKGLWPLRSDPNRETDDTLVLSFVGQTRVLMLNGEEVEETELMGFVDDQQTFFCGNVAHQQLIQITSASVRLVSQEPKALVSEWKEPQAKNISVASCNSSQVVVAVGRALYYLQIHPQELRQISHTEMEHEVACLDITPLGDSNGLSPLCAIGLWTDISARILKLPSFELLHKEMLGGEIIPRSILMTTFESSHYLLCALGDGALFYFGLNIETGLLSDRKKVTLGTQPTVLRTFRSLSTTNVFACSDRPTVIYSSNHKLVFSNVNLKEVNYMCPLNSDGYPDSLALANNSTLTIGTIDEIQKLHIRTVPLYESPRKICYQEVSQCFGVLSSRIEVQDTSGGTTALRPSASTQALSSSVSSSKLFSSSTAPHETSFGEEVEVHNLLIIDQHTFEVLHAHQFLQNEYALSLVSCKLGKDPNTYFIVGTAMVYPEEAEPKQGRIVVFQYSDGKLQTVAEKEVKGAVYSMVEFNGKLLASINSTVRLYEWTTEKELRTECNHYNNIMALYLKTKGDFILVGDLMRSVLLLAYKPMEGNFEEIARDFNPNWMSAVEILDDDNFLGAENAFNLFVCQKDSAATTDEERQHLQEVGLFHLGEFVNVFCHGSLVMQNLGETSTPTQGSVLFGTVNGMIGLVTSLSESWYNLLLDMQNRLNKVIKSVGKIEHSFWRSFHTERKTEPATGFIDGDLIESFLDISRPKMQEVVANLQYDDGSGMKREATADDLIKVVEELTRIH
Assay: Cereblon (CRBN) target engagement, NanoBRET TE Intracellular E3 Ligase Assay in transfected HEK-293T cells
Conditions: read-out: CRBN Binding EC50
PROPERTY MEASURED: EC50 (nM)

Solved cases (6 shown):
O=C1CCC(N2Cc3cc(O[C@H]4CCCC[C@@H]4N4CC(c5ccncc5Cl)C4)ccc3C2=O)C(=O)N1 (mixture of isomers) [Compound 173-B] : 52
O=C1CCC(N2Cc3cc(O[C@H]4CCCC[C@@H]4N4CC(c5cncc(Cl)c5)C4)ccc3C2=O)C(=O)N1 (single isomer, unassigned) [Compound 117-B] : 21
O=C1CCC(N2Cc3cc(OC4CCCC4N4CC(c5c[nH]c6ccccc56)C4)ccc3C2=O)C(=O)N1 (stereo not drawn) : 13
O=C1CCC(N2Cc3cc(O[C@H]4CCCC[C@H]4N4CC(c5ccc(Cl)cn5)C4)ccc3C2=O)C(=O)N1 (mixture of isomers) [Compound 164-B] : 15
CC1(C(=O)N2CCC(C3CN([C@H]4CCCC[C@@H]4Oc4ccc5c(c4)CN(C4CCC(=O)NC4=O)C5=O)C3)CC2)CC1 (stereo partly drawn) : 6
O=C1CCC(N2Cc3cc(OC4CCCCC4N4CC(c5cncnc5)C4)ccc3C2=O)C(=O)N1 (stereo not drawn) : 57

(I) O=C1CCC(N2Cc3cc(O[C@H]4CCCC[C@@H]4N4CC(c5ccc(C(F)(F)F)cn5)C4)ccc3C2=O)C(=O)N1 (single isomer, unassigned) [Compound 131-B]
(II) O=C1CCC(N2Cc3cc(O[C@@H]4CCCC[C@@H]4N4CC(c5ccc6ccccc6n5)C4)ccc3C2=O)C(=O)N1 (single isomer, unassigned) [Compound 91-B]
(III) CC(C)(C)OC(=O)N1CCC(C2CN([C@H]3CCCC[C@@H]3Oc3ccc4c(c3)CN(C3CCC(=O)NC3=O)C4=O)C2)CC1 (stereo partly drawn)
(IV) O=C1CCC(N2Cc3cc(O[C@@H]4CCCC[C@@H]4N4CC(c5ncncc5Cl)C4)ccc3C2=O)C(=O)N1 (mixture of isomers) [Compound 139-B]
List the 4 entries from lowest EC50 to highest EC50 value. Your answer should be the labels, listed in the requested order. III, II, I, IV
(III: 1 nM, II: 5 nM, I: 21 nM, IV: 35 nM)

(A) O=C1CCC(N2Cc3cc(O[C@@H]4CCCC[C@@H]4N4CC(c5ccncc5Cl)C4)ccc3C2=O)C(=O)N1 (single isomer, unassigned) [Compound 96-B]
(B) O=C1CCC(N2Cc3cc(O[C@H]4CCCC[C@@H]4N4CC(c5ncc(C(F)(F)F)cn5)C4)ccc3C2=O)C(=O)N1 (mixture of isomers) [Compound 187-B]
Out of A and B , name the one with the higher EC50. Indicate which entry you chose by stating its label. A
